# Tested on: P. falciparum female gametocytes
# protocol-summary: P. falciparum Dual Gamete Formation Assay (PfDGFA), female readout (Pfs25-positive female gametes)
# Type: cell-based, Plasmodium falciparum NF54
readout: Cytotox ratio Pf Female
Lab note: record the figure alone, no unit after it.

Recorded results for 3 compounds are shown here.
compound: Fc1ccc2[nH]c(-c3ccc(-c4ccc(CNCCN5CCNCC5)cc4)s3)nc2c1.O=C(O)C(F)(F)F [TC23]
Cytotox ratio Pf Female: 3.4
--
compound: COCCN(C)CCCOc1cc2c(cc1OC)ncn2-c1cc(OCc2ccccc2C(F)(F)F)c(C(N)=O)s1.Cl [TC14]
Cytotox ratio Pf Female: 1.4
--
compound: C#C[C@H]1O[C@@H](n2cnc3c(Nc4cc(Br)cc(C(F)(F)F)c4)ncnc32)[C@H](O)[C@@H]1O [TC70]
Cytotox ratio Pf Female: 7.9

Input line: Name the recorded Cytotox ratio Pf Female for COc1ccc2nc(-c3cc(-c4ccc(NC(=O)C(C)C)cc4)cnc3N)[nH]c2c1 [TC32] .
Output line: 0.85

Input line: Which Cytotox ratio Pf Female is reported for this compound? c1ccc(-c2nc(Nc3nc4ccccc4[nH]3)[nH]c2-c2ccccc2)cc1 [TC56]
Output line: 13.3

Reference source: paper PMC10584170
